Where do these numbers come from? They come from patent US8507488B2.

Test Target: Tel-TrkB (Homo sapiens, UniProt Q16620)
Construct: dimerization domain of Tel (ETV6) transcription factor (fusion partner, human ETV6 P41212); expressed in transfected cells; host or cells: luciferase expressing Ba/F3 murine hematopoietic progenitor cells; the other entry of the earlier key: ETV6 (P41212, Transcription factor ETV6)
Sequence (Q16620 538-822 limits assumed): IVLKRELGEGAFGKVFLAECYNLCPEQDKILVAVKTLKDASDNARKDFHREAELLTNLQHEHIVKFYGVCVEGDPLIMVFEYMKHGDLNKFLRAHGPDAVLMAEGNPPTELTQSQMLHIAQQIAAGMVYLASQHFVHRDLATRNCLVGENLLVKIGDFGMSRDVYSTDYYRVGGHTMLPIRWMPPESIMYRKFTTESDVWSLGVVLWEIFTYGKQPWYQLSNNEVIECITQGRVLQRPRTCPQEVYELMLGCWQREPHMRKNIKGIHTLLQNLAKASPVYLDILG
Method Description: Inhibition of proliferation of Ba/F3 cells expressing Tel-TrkB (BaF3/Tel-TrkB)
Type: cell-based
Condition Details: BaF3/Tel-TrkB cells; read-out: IC50 in BaF3/Tel-TrkB CTG cellular assay
# maps each entry to its IC50

{"Test Smiles": "OC1CCN(c2cc(-c3cccc(-c4cnc5ccc(N6CCC[C@@H]6c6cccc(F)c6)nn45)n3)ccn2)CC1", "Test Target": "Tel-TrkB (Homo sapiens, UniProt Q16620)", "Parameter Measured": "IC50", "Result": "12 nM"}

// next entry
Name the reported IC50 value associated with the compound O[C@@H]1CCN(c2nccc(-c3cccc(-c4cnc5ccc(N6CCC[C@@H]6c6cccc(F)c6)nn45)n3)n2)C1
3.3 nM

###

Test Target: Tel-TrkA (Homo sapiens, UniProt P04629)
Construct: dimerization domain of Tel (ETV6) transcription factor (fusion partner, human ETV6 P41212); expressed in transfected cells; host or cells: luciferase expressing Ba/F3 murine hematopoietic progenitor cells; the other entry of the earlier key: ETV6 (P41212, Transcription factor ETV6)
Sequence (P04629 510-796 limits assumed): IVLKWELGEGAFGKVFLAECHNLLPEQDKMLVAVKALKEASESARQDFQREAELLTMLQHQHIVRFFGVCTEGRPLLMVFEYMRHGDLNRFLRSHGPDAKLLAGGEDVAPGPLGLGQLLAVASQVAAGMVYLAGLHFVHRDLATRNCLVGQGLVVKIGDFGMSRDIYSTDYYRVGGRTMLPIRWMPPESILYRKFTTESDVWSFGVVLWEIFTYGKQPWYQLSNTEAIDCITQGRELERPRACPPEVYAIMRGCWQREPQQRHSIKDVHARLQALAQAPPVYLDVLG
Method Description: Inhibition of proliferation of Ba/F3 cells expressing Tel-TrkA (BaF3/Tel-TrkA, luciferase/Bright Glo readout)
Assay type: cell-based
Condition Details: read-out: Ba/F3 Tel-TrkA IC 50
Experimental: Test compounds were dissolved in DMSO (10 mM) and transferred into 1.4 mL flat bottom or V-shaped Matrix tubes carrying a unique 2D matrix chip by individual compound hubs. […] The cell line used is the luciferase expressing Ba/F3 murine hematopoietic progenitor cell line transformed with human Tel-TrkA, Tel-TrkB or Tel-TrkC cDNAs (Ba/F3 EN A/B/C). […] The emited luminiscence is quantified using the ACQUEST™ luminescence system (Molecular Devices). […]
Entries annotated with measured pIC50
Scale: pIC50 equals -log10([C]), with [C] in mol/L.

Here is how some compounds turned out for pIC50.
{"Compound": "N#Cc1cccc(-n2cnc3ccc(N4CCSC4c4cc(F)ccc4F)nc32)c1 (stereo not shown)", "Parameter Measured": "pIC50", "Numeric Readout": 7.55}
{"Compound": "Fc1ccc(N2CCN(c3cccc(-c4cnc5ccc(N6CCC[C@@H]6c6cccc(F)c6)nn45)n3)CC2)cc1", "Parameter Measured": "pIC50", "Numeric Readout": 6.89}
{"Compound": "Fc1cccc(C2CCCN2c2ccc3ncc(-c4cccc(C5OCCO5)n4)n3n2)c1 (stereo not shown)", "Parameter Measured": "pIC50", "Numeric Readout": 7.33}

Could you now consider this next compound?
What value of measured pIC50 is listed for O=C(CO)NC1CN(c2cccc(-c3cnc4ccc(N5CCC[C@@H]5c5cccc(F)c5)nn34)n2)C1 ?
8.70

###

Test Target: Tel-TrkB (Homo sapiens)
Construct: dimerization domain of Tel (ETV6) transcription factor (fusion partner, human ETV6 P41212); expressed in transfected cells; host or cells: luciferase expressing Ba/F3 murine hematopoietic progenitor cells; the other entry of the earlier key: ETV6 (P41212, Transcription factor ETV6)
Method Description: Inhibition of proliferation of Ba/F3 cells expressing Tel-TrkB (BaF3/Tel-TrkB)
Format: cell-based
Condition Details: Ba/F3 Tel-TrkB cells; read-out: Ba/F3 Tel-TrkB IC 50
Parameter Measured: pIC50
Schema: pIC50 number; meaning minus log10 of the concentration expressed in molar units.

Consider the following illustrative entries.
{"Compound": "OCCN1CCN(c2cccc(-c3cnc4ccc(N5CCCC5c5cccc(F)c5)nn34)n2)CC1 (stereo not shown) [Table 7-Compound 100]", "pIC50": 8.70}
{"Compound": "C=CC1(O)CCN(c2cccc(-c3cnc4ccc(N5CCC[C@@H]5c5cccc(F)c5)nn34)n2)CC1 [Table 7-Compound 238]", "pIC50": 7.60}
{"Compound": "Fc1cccc(C2CCCN2c2ccc3ncc(-c4cncc(-n5ccnc5)n4)n3n2)c1 (stereo not shown) [Table 3-Compound 11]", "pIC50": 7.25}
{"Compound": "Fc1cccc([C@H]2CCCN2c2ccc3ncc(-c4cccc(N5CC[C@@H](NCC(F)(F)F)C5)n4)n3n2)c1 [Table 7-Compound 217]", "pIC50": 7.52}
{"Compound": "O=C1CN(c2cccc(-c3cnc4ccc(N5CCCC5c5cccc(F)c5)nn34)n2)CCN1 (stereo not shown) [Table 4-Compound 5]", "pIC50": 9.40}

Given the entry Fc1cccc(C2COCCN2c2ccc3ncc(-c4ccccn4)n3n2)c1 (stereo not shown) [Table 2-Compound 4] , report its measured pIC50.
8.24

O=C(CO)NC1CN(c2cccc(-c3cnc4ccc(N5CCC[C@@H]5c5cccc(F)c5)nn34)n2)C1 [Table 7-Compound 132] ?
8.70
